# SUBJECT OF TEST: hα7-wt nAChR-expressing cells (Homo sapiens)
# Construct: expressed in transfected cells; host or cells: hα7-wt nAChR-expressing cells
# Sequence (P36544 23-502): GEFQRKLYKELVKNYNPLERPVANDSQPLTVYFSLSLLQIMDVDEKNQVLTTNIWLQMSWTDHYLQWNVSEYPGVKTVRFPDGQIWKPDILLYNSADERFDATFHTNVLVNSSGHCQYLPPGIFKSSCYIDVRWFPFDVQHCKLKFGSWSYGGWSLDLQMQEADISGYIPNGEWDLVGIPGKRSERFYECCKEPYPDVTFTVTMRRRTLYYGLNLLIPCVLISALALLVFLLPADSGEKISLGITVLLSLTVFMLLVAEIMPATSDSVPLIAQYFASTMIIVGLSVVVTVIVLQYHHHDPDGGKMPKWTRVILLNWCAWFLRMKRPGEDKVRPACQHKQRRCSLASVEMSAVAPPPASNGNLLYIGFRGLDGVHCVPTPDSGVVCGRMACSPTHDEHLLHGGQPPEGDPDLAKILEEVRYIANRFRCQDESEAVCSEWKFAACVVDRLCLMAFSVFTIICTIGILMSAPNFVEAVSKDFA
# PROTOCOL SUMMARY: Ca2+ flux imaging (FDSS) (Protocol B), PAM activity with choline 100 μM
# Assay type: cell-based
# CONDITION DETAILS: according to Ex. D.1b; read-out: % Efficacy
Recorded Emax split into classes bin A: < 600%; bin B: ≥ 600% and < 700%; bin C: ≥ 700%

Lookup: Bin this entry: `COc1cc(Cl)cc(Nc2nc(CC(=O)NC3CCC3)n(-c3cc(C)nc(C)c3)n2)c1`
Found: bin A

Lookup: Bin this entry: `Cc1cc(-n2nc(Nc3ccc(F)c(F)c3F)nc2CC(=O)NC(C)C)cc(C)n1`
Found: bin C

Lookup: Bin this entry: `Cc1cc(-n2nc(Nc3ccc(F)c(F)c3)nc2CC(=O)NC2CCC2)c(C)cn1`
Found: bin B

Lookup: Bin this entry: `CC[C@@H](O)Cc1nc(Nc2cc(OC)cc(C(F)(F)F)c2)nn1-c1cc(C)nc(C)c1`
Found: bin C

Lookup: Bin this entry: `COc1ccc(Nc2nc(CC(=O)NC3CCC3)n(-c3cc(C)nc(C)c3)n2)cc1C(F)(F)F`
Found: bin A

###

Record form. Attribute: Emax. Fill in for each entry.
# SUBJECT OF TEST: hα7-wt nAChR-expressing cells (Homo sapiens)
# Construct: expressed in transfected cells; host or cells: hα7-wt nAChR-expressing cells
# PROTOCOL SUMMARY: Ca2+ flux imaging (FDSS) (Protocol B), PAM activity with choline 100 μM
# Format: cell-based
# CONDITION DETAILS: according to Ex. D.1b; read-out: % Efficacy
In your response, the unit should come after the numeric value.

Lookup: Recorded Emax for `Cc1cc(-n2nc(Nc3ccc(F)c(F)c3)nc2C[C@H](C)O)cc(C)n1` , please?
Found: 961%

Lookup: Recorded Emax for `Cc1cc(-n2nc(Nc3ccc(F)c(F)c3)nc2CC(=O)NCC2CC2)c(C)cn1` , please?
Found: 589%

Lookup: Recorded Emax for `Cc1cc(-n2nc(Nc3cc(F)c(F)c(F)c3)nc2CC(=O)NC2CC2)cc(C)n1` , please?
Found: 653%

Lookup: Recorded Emax for `Cc1cc(-n2nc(Nc3cc(F)cc(Cl)c3)nc2CC(=O)NC2CCC2)cc(C)n1` , please?
Found: 421%

Lookup: Recorded Emax for `CNC(=O)Cc1nc(Nc2cc(OC)cc(C(F)(F)F)c2)nn1-c1cc(C)nc(C)c1` , please?
Found: 802%

Lookup: Recorded Emax for `CNC(=O)Cc1nc(Nc2cc(F)cc(F)c2)nn1-c1cc(C)nc(C)c1` , please?
Found: 289%

Lookup: Recorded Emax for `Cc1cc(-n2nc(Nc3cccc(Cl)c3F)nc2CC(=O)NCC2CC2)c(C)cn1` , please?
Found: 328%

Lookup: Recorded Emax for `Cc1cc(-n2nc(Nc3ccc(F)c(C(F)(F)F)c3)nc2CC(=O)NC2CCC2)cc(C)n1` , please?
Found: 660%

Lookup: Recorded Emax for `Cc1cc(-n2nc(Nc3cccc(Cl)c3F)nc2CC(=O)NC2CC2)c(C)cn1` , please?
Found: 492%

###

# SUBJECT OF TEST: hα7-wt nAChR-expressing GH4Cl cells (Homo sapiens)
# Construct: expressed in transfected cells
# Sequence (P36544 23-502): as above
# PROTOCOL SUMMARY: Patch-clamp current recording (whole-cell), potentiation of choline 1 mM response, PAM type
# Type: cell-based
# CONDITION DETAILS: according to Ex. D.2; "<5" = no top plateau reached at maximal concentration; read-out: Potency (pEC50) (converted)
Please note: EC50 exactly at 700 nM is label 0. Only values below 700 nM get label 1.

Lookup: Lab note: confirm whether the reported EC50 for this compound is below 700 nM, equality not counting. compound: CC[C@H](O)Cc1nc(Nc2ccc(F)c(F)c2)nn1-c1ccc(C)nc1 [E140]
Found: label 0

Lookup: Lab note: confirm whether the reported EC50 for this compound is below 700 nM, equality not counting. compound: Cc1cc(-n2nc(Nc3ccc(F)c(C(F)(F)F)c3)nc2CCCF)ccn1 [E8]
Found: label 1

Lookup: Lab note: confirm whether the reported EC50 for this compound is below 700 nM, equality not counting. compound: Cc1cc(-n2nc(Nc3ccc(F)c(F)c3F)nc2CC(=O)NC(C)C)cc(C)n1 [E213]
Found: label 1

Lookup: Lab note: confirm whether the reported EC50 for this compound is below 700 nM, equality not counting. compound: CNC(=O)CCc1nc(Nc2ccc(F)c(C(F)(F)F)c2)nn1-c1ccc2c(c1)OCCO2 [E55]
Found: label 1

Lookup: Lab note: confirm whether the reported EC50 for this compound is below 700 nM, equality not counting. compound: CC[C@H](O)Cc1nc(Nc2ccc(F)c(F)c2)nn1-c1ccc(OC)cc1 [E29]
Found: label 0

Lookup: Lab note: confirm whether the reported EC50 for this compound is below 700 nM, equality not counting. compound: CC[C@H](O)Cc1nc(Nc2cccc(Cl)c2F)nn1-c1cc(C)nc(C)c1 [E172]
Found: label 1

Lookup: Lab note: confirm whether the reported EC50 for this compound is below 700 nM, equality not counting. compound: COc1cc(Nc2nc(CC(=O)NC3CCC3)n(-c3cc(C)nc(C)c3)n2)cc(C(F)(F)F)c1 [E244]
Found: label 1

Lookup: Lab note: confirm whether the reported EC50 for this compound is below 700 nM, equality not counting. compound: CC[C@H](O)Cc1nc(Nc2ccc(F)c(F)c2)nn1-c1ccc(F)cc1 [E28]
Found: label 0

Lookup: Lab note: confirm whether the reported EC50 for this compound is below 700 nM, equality not counting. compound: CNC(=O)CCc1nc(Nc2ccc(F)c(C(F)(F)F)c2)nn1-c1ccc(OC)cc1 [E44]
Found: label 1

Lookup: Lab note: confirm whether the reported EC50 for this compound is below 700 nM, equality not counting. compound: CCc1cc(-n2nc(Nc3cc(OC)cc(C(F)(F)F)c3)nc2C[C@H](C)O)ccn1 [E133]
Found: label 1

Lookup: Lab note: confirm whether the reported EC50 for this compound is below 700 nM, equality not counting. compound: Cc1cc(-n2nc(Nc3cccc(Cl)c3F)nc2CC(=O)NC2CCC2)cc(C)n1 [E152]
Found: label 1

Lookup: Lab note: confirm whether the reported EC50 for this compound is below 700 nM, equality not counting. compound: Cc1ncccc1-n1nc(Nc2ccc3c(c2)OC(F)(F)O3)nc1CCC(=O)N(C)C [E116]
Found: label 0

Lookup: Lab note: confirm whether the reported EC50 for this compound is below 700 nM, equality not counting. compound: COc1cc(Nc2nc(C[C@H](C)O)n(-c3ccnc(C)c3)n2)cc(C(F)(F)F)c1 [E135]
Found: label 1

Lookup: Lab note: confirm whether the reported EC50 for this compound is below 700 nM, equality not counting. compound: Cc1cc(-n2nc(Nc3ccc(F)c(F)c3)nc2CCC(=O)N(C)C)cc(C)n1 [E234]
Found: label 1

Lookup: Lab note: confirm whether the reported EC50 for this compound is below 700 nM, equality not counting. compound: Cc1cc(-n2nc(Nc3ccc(F)c(C(F)(F)F)c3)nc2CC(C)O)ccn1 (stereo not shown) [E10]
Found: label 0

Lookup: Lab note: confirm whether the reported EC50 for this compound is below 700 nM, equality not counting. compound: CN(C)C(=O)CCc1nc(Nc2cccc(OC(F)(F)F)c2)nn1-c1cccnc1 [E71]
Found: label 1

Lookup: Lab note: confirm whether the reported EC50 for this compound is below 700 nM, equality not counting. compound: CN(C)C(=O)CCc1nc(Nc2ccc(F)c(F)c2)nn1-c1ccc2c(c1)OCCO2 [E3]
Found: label 1

Lookup: Lab note: confirm whether the reported EC50 for this compound is below 700 nM, equality not counting. compound: CC[C@@H](O)Cc1nc(Nc2ccc(F)c(F)c2)nn1-c1ccnc(C)c1 [E134]
Found: label 0

Lookup: Lab note: confirm whether the reported EC50 for this compound is below 700 nM, equality not counting. compound: CCNC(=O)Cc1nc(Nc2cc(F)cc(F)c2)nn1-c1cc(C)nc(C)c1 [E237]
Found: label 1

This collection of values is drawn from patent US8778974B2.
